- Assay Text: qHTS Assay for Lipid Storage Modulators (AID 1519); note: % is set by controls: 0 for no effect and ±100 for the full control effect
- Measurement Parameters: Drosophila S3 cells, BODIPY lipid droplet/cell ratio, laser cytometry; at 25.7 µM (top of the series); cells loaded with oleic acid
Records with an inconclusive call do not appear.
Measurement Type: activity change, negative = inhibition (%)
Field format: number, assumed %, no unit text.

Here are 5 molecules together with their reported answers.
In [3]: df
Out[3]:
                               query_smiles                        measurement_type  number
0  C[C@@H]1C[C@H](OC(=O)c2ccccc2O)CC(C)(C)C1  activity change, negative = inhibition   -2.75
1                     Cc1ccccc1OC[C@H](O)CO  activity change, negative = inhibition  -0.676
2     CCN(CC)[C@@H](C)CN1c2ccccc2Sc2ccccc21  activity change, negative = inhibition   0.633
3  C[N+]1(C)CC[C@@H](OC(=O)[C@@](O)(c2ccccc2)C2CCCC2)C1  activity change, negative = inhibition    -2.8
4  CC[N+](CC)(CC)CC[C@](O)(c1ccccc1)C1CCCCC1  activity change, negative = inhibition   -1.33

Consider the additional molecule presented here.
Query: Which activity change, negative = inhibition is reported for this molecule? Cc1cn([C@@H]2C[C@H](N=[N+]=N)[C@H](CO)O2)c(=O)[nH]c1=O
Reply: -0.533

###

// values below are reported activity change, negative = inhibition
- Assay Text: qHTS Assay for Lipid Storage Modulators (AID 1519); note: % is set by controls: 0 for no effect and ±100 for the full control effect
- Measurement Parameters: Drosophila S3 cells, BODIPY lipid droplet/cell ratio, laser cytometry; at 57.5 µM (top of the series); cells loaded with oleic acid
Records with an inconclusive call do not appear. The source made the active and inactive calls. Calls come from the whole dose curve.

// known answers, use as guide
Molecule	activity change, negative = inhibition
COC(=O)CC1C(C)(C)C(OC(C)=O)C2CC3=C4CC(=O)OC(c5ccoc5)[C@]4(C)CCC3[C@@]1(C)C2=O (some centres undefined)	-5.96% (inactive)
O=C(CCc1ccc(O)cc1)c1c(O)cc(O)cc1O[C@H]1OC(CO)C(O)C(O)C1O (some centres undefined)	6.17% (inactive)
C/C=C(/C)C(=O)OC1C(OC(C)=O)[C@@]2(CO)C(O)C[C@@]3(C)C(=CCC4[C@@]5(C)CCC(OC6OC(C(=O)O)[C@@H](O[C@@H]7OC(CO)C(O)C(O)C7O)C(O)[C@H]6O[C@@H]6OC(CO)C(O)C(O)C6O)[C@](C)(CO)C5CC[C@@]43C)C2CC1(C)C (some centres undefined)	9.44% (inactive)

For the next question, use this molecule.
Query: Dear colleague, I am looking for the recorded activity change, negative = inhibition of the following molecule: CC(=O)OC1CCC2(C)C3CC(=O)C4(C)C(CC5OC6(CCC(C)CO6)C(C)C54)C3CC[C@H]2C1 (some centres undefined)
Reply: 5.04% (inactive)

###

- Target Of Assay: Rap guanine nucleotide exchange factor 3 (Homo sapiens) (UniProt O95398)
- Sequence (O95398 whole entry, looked up): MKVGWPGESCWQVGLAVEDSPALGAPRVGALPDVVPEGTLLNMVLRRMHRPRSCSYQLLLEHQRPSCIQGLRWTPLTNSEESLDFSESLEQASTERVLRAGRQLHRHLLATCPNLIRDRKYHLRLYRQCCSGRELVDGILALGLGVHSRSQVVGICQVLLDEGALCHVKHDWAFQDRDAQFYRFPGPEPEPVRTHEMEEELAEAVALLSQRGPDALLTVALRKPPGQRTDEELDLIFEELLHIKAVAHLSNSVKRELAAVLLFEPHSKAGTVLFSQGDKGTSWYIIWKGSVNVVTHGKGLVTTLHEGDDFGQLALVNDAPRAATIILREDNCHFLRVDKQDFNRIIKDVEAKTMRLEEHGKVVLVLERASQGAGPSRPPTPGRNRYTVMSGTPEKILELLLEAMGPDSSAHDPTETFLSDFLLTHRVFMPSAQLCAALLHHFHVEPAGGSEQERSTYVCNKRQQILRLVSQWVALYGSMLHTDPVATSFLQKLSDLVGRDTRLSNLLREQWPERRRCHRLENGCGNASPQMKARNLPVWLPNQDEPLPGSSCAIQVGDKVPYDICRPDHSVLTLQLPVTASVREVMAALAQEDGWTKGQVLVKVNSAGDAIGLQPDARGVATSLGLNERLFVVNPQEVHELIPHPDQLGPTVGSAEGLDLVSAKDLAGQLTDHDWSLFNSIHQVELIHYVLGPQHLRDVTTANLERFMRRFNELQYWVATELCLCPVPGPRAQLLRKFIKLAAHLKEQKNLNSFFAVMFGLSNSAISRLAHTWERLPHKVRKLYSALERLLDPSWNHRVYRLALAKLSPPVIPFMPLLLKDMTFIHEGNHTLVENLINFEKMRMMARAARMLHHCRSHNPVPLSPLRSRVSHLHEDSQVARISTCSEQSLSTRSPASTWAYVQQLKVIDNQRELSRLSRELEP
- Assay Text: Confirmatory qHTS for antagonist of cAMP-regulated guanine nucleotide exchange factor 3 (EPAC1) (AID 1645880); note: nearly all actives have a fitted effect of over 55% in size
- Measurement Parameters: EPAC1 Rap1B-BODIPY-GDP exchange, fluorescence; series mostly up to 115 µM
Results filed as inconclusive are left out. Activity calls are given as the source filed them. The call rests on the fitted dose curve; in most records, active means well fitted inhibition curve with a large enough effect; inconclusive means small, poorly fitted or top-dose-only effect; inactive means no such curve, though single readings can be large or run the other way.
Please answer using one outcome listed in 1.0 = active, 0.0 = inactive

>>> print(df.to_string())
                                   compound  cat
0    Cn1nc(-c2ccccn2)nc2c(=O)n(C)c(=O)nc1-2  1.0
1  Cc1ccc2nc(N3C(=O)C(O)=C(C(=O)c4ccc(C)o4)C3c3cccc(O)c3)sc2c1 (stereo not given)  1.0
2  COc1ccc(C)cc1NC(=O)CSc1nc(=O)n(Cc2ccco2)c2c1CCC2  1.0
3  COc1ccc(N2CCN(C3CCCCC3NS(=O)(=O)c3ccccc3)CC2)cc1 (stereo not given)  0.0
4  CC1Cc2cc(/C=C3/SC(=S)NC3=O)ccc2O1 (stereo not given)  1.0
5     Cc1ccc(OCC(=O)Nc2ccccc2N2CCCC2)c(C)c1  0.0

Query: Kindly provide the recorded test outcome for the following compound: CCOc1cc(/C=C2\C(=N)N3N=C(S(C)(=O)=O)SC3=NC2=O)ccc1OCCOc1cccc(OC)c1
Reply: 1.0
